Source of measurements: patent US6046329A

tgt: α1B receptor (Rattus norvegicus)
Construct: membranes from rat brain cortex; from tissue; host or cells: rat brain cortex membranes
Sequence (P15823 1-515): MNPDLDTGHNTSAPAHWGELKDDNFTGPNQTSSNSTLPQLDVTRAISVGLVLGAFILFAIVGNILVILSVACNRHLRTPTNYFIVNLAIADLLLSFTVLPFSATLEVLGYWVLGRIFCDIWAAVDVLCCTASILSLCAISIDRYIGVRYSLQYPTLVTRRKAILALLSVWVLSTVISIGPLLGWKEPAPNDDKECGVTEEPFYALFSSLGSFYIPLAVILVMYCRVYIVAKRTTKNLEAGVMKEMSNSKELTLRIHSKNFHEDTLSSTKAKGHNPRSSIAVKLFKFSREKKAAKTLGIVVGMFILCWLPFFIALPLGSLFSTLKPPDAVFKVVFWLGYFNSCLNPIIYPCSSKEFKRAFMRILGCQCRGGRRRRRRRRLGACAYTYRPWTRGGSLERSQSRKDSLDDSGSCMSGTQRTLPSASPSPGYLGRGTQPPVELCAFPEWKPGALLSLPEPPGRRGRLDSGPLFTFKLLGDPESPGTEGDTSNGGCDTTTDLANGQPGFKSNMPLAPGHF
protocol: Radioligand binding with [3H]prazosine (in the presence of WB 4101), affinity for α1B receptor subtype
test-conditions: membranes from rat brain cortex, subtype-selective substances tested again in the presence of 3 nmol/l WB 4101, Cheng and Prusoff, read-out: Receptor affinity α1B, expressed in pKI values (converted)
Classify: Yes when Ki is strictly less than 30 nM; No when Ki is not.

compound	tgt	assigned-category
CCOc1ccccc1N1CCN(CCCNc2c(CCC#N)c(=O)n(C)c(=O)n2C)CC1	α1B receptor (Rattus norvegicus)	No
Cn1c(NCCCN2CCN(c3cccc4c3OCC(CO)O4)CC2)c(Cc2c(NCCCN3CCN(c4cccc5c4OCC(CO)O5)CC3)n(C)c(=O)n(C)c2=O)c(=O)n(C)c1=O (stereo not shown)	α1B receptor (Rattus norvegicus)	Yes
CON=Cc1c(NCCCN2CCN(c3ccccc3OC)CC2)n(C)c(=O)n(C)c1=O	α1B receptor (Rattus norvegicus)	No
COc1cc(NC(C)=O)ccc1N1CCN(CCCNc2c(C)c(=O)n(C)c(=O)n2C)CC1	α1B receptor (Rattus norvegicus)	No
COc1ccccc1N1CCN(CCCNC(=O)c2cc(=O)n(C)c(=O)n2C)CC1	α1B receptor (Rattus norvegicus)	No
COc1ccccc1N1CCN(CCCNc2cc(=S)n(C)c(=O)n2C)CC1	α1B receptor (Rattus norvegicus)	No
CCOC(=O)c1c(NCCCN2CCN(c3ccccc3OC)CC2)n(C)c(=O)n(C)c1=O	α1B receptor (Rattus norvegicus)	Yes
COc1ccccc1N1CCN(CCCNc2c(OC)c(=O)n(C)c(=O)n2C)CC1	α1B receptor (Rattus norvegicus)	No
COc1cc(N)ccc1N1CCN(CCCNc2c(C)c(=O)n(C)c(=O)n2C)CC1	α1B receptor (Rattus norvegicus)	No
COc1ccccc1N1CCN(CCCNc2c(Cc3c(NCCCN4CCN(c5ccccc5OC)CC4)n(C)c(=O)n(C)c3=O)c(=O)n(C)c(=O)n2C)CC1	α1B receptor (Rattus norvegicus)	Yes
